- system: human OAT3 (human organic anion transporter 3) (Homo sapiens, UniProt Q8TCC7)
- Construct: expressed in transfected cells; host or cells: S2 cells expressing OAT3
- Sequence (Q8TCC7 whole entry): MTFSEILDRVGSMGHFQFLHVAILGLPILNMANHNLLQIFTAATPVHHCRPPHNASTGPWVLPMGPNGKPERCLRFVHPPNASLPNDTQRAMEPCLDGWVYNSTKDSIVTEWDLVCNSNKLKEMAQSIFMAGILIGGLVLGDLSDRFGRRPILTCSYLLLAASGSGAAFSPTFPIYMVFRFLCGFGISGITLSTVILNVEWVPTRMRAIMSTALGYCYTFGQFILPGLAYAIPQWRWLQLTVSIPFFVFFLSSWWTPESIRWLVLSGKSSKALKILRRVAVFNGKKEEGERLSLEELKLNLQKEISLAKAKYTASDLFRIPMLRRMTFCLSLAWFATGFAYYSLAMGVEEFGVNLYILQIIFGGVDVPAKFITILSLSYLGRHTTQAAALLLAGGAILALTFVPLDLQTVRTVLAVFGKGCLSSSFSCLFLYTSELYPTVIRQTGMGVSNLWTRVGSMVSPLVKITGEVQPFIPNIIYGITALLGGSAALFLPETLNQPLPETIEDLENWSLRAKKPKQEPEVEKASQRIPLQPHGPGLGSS
- experiment.notes: Inhibition of 3H-estrone sulfate uptake by OAT3 in S2 cells
- Assay type: cell-based
- test.settings: OAT3, 3H-estrone sulfate uptake, FIG. 8; read-out: Ki-value (competitive inhibition)
result.type: Ki
Remember to put the unit after the number in your answer.

Prompt: Could you share which Ki value was measured for CCc1oc2cc(O)ccc2c1C(=O)c1cc(Br)c(O)c(Br)c1 [6-hydroxybenzbromarone] ?
Completion: 1000 nM

###

- experiment.notes: Clinical pharmacokinetic test, single dose of benzbromarone, plasma and urine by LC/MS/MS
- Type: in vivo, human
- test.settings: male, human, plasma, po, 100 mg as benzbromarone; read-out: plasma concentration 72 hours after administration
result.type: concentration at 72 h

Prompt: Could you share which concentration at 72 h value was measured for CCc1oc2cc(O)ccc2c1C(=O)c1cc(Br)c(O)c(Br)c1 [6-hydroxybenzbromarone] ?
Completion: ~110 ng/mL

###

- system: human OAT3 (human organic anion transporter 3) (Homo sapiens, UniProt Q8TCC7)
- Construct: expressed in transfected cells; host or cells: S2 cells expressing OAT3
- experiment.notes: Inhibition of 3H-estrone sulfate uptake by OAT3 in S2 cells
- Assay type: cell-based
result.type: pIC50
The meaning of pIC50 here: minus log10 of the concentration in molar units.

Prompt: Identify the measured pIC50 of `CCc1oc2ccccc2c1C(=O)c1cc(Br)c(O)c(Br)c1` for human OAT3 (human organic anion transporter 3) (Homo sapiens, UniProt Q8TCC7).
Completion: 6.15

###

- system: URAT1 (Homo sapiens)
- Construct: expressed in transfected cells
- Sequence (Q96S37 1-553): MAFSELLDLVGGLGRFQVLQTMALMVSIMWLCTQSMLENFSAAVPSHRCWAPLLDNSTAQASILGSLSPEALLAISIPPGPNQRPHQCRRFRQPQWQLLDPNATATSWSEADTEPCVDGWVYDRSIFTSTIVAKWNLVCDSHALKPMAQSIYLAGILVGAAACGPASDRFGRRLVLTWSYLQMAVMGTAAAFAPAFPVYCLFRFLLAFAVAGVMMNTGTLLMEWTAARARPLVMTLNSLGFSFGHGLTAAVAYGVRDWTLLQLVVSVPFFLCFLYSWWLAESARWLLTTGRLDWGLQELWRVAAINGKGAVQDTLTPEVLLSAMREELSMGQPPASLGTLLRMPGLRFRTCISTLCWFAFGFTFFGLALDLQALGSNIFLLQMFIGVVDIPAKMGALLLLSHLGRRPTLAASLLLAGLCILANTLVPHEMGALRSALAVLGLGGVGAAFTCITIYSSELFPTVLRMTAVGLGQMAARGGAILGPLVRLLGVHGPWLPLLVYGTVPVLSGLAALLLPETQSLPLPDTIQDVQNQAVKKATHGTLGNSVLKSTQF
- experiment.notes: Inhibition of [14C] uric acid uptake by URAT1 in MDCK-URAT1 cells
- Type: cell-based
- test.settings: MDCK-URAT1 cells, 100 μM [14C] uric acid, single experiment shown in figure; read-out: level of IC50, uric acid uptake by URAT1 (FIG. 1 / FIG. 2)
result.type: IC50

Prompt: Could you share which IC50 value was measured for CCc1oc2cc(O)ccc2c1C(=O)c1cc(Br)c(O)c(Br)c1 [6-hydroxybenzbromarone] ?
Completion: 130 nM
